Literature-derived IC50 for UniProtKB P14555 follows.
readout.kind: IC50 (µM)

Solved entries (count: 6):
> print(dat)
                                   compound  reported.result
1  CCCCCCCCOc1ccc(C2=CC(=O)OC2O)cc1[N+](=O)[O-] (stereo not drawn)              9.4
2  O=C1C=C(c2ccc(Oc3ccc4ccccc4c3)cc2)C(O)O1 (stereo not drawn)               50
3  CC1=C(C/C=C(\C)COc2ccc(C3=CC(=O)OC3O)cc2)C(C)(C)CCC1 (stereo not drawn)                9
4  CCCCCCCCCCCCCC(=O)CC(=O)c1cccc(C(=O)O)c1              1.7
5  O=C1C=C(c2ccc(/C=C/c3ccccc3)cc2)C(O)O1 (single isomer, unassigned)               30
6  CCCCCC#CCCCCCCC#CC(O)c1cccc(C(=O)O)c1 (stereo not drawn)               28

(a) CCCCCCCCCCCCC#CC(=O)c1ccc(C(=O)O)cc1
(b) CCCCCCCCCCCCCC(=O)CC(=O)c1ccc(C(=O)O)cc1
(c) CCCCCCCCSc1ccc(C2=CC(=O)OC2O)cc1 (stereo not drawn)
(d) COCCCCCCCCCC#CC(=O)Cc1cccc(C(=O)OC)c1
(e) CC1=C(C/C=C(\C)COc2cccc(C3=CC(=O)OC3O)c2)C(C)(C)CCC1 (stereo not drawn)
Ask: Rank items: key IC50, increasing. # format: label list in the order the request specifies
Result: c, e, a, d, b

(A) CCCCCCCCCCCCCC#CC(=O)c1ccc(C(=O)O)s1
(B) O=C1C=C(c2ccc(C(=O)/C=C/c3ccc4ccccc4c3)cc2)C(O)O1 (stereo not drawn)
Ask: When the recorded IC50 values are compared, which is smaller: that of A or that of B ? Output the label that corresponds to your choice.
Result: B

(1) CCCCCCCCOc1ccc(C2=CC(=O)OC2O)cc1 (stereo not drawn)
(2) CCCCCCCCOc1ccc(C2=CC(=O)OC2O)c(Cl)c1 (stereo not drawn)
(3) CCCCCCCCCCCCCC(=O)CC(=O)c1ccc(C(=O)O)s1
Ask: Sequence the entries by IC50, beginning with the highest number. # format: label list in the order the request specifies
Result: 1, 2, 3

---

pIC50: −log10 of the molar value.
Literature-derived pIC50 for Phospholipase A2, membrane associated (Homo sapiens, UniProt P14555) follows.
readout.kind: pIC50

> print(dat)
                                   compound  reported.result
1  CCCCCCCCCCCCCC(=O)CC(=O)c1cccc(-c2nnn[nH]2)c1             4.32

(A) CC1=C(CCCCCCCOc2ccc(C3=CC(=O)OC3O)cc2)C(C)(C)CCC1 (centres unmarked)
(B) O=C1C=C(c2ccc(OCCCCCCOc3ccc4ccccc4c3)cc2)C(O)O1 (centres unmarked)
(C) COC(=O)c1cccc(CC(=O)C#CCCCCCCCCCOc2ccccc2)c1
(D) CC(C)=CCC/C(C)=C/CSc1ccc(C2=CC(=O)OC2O)cc1 (centres unmarked)
Ask: Rank items: key pIC50, increasing. # format: label list in the order the request specifies
Result: B, D, C, A
(B: 4.66, D: 5.10, C: 5.56, A: 5.85)
